Source listed as paper PMC7688068.

# system_name: mPTPB (Mycobacterium tuberculosis, UniProt I6WXK4)
# Sequence (I6WXK4 whole entry, looked up): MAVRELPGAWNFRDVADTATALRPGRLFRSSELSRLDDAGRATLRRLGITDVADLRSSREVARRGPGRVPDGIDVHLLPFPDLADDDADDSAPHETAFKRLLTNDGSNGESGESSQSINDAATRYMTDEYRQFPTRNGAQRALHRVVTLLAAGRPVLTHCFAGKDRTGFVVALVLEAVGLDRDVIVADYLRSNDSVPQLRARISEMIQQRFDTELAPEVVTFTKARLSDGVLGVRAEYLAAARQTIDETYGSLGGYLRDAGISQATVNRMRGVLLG
# Type: biochemical
Recorded fold less potency compared to corresponding alkyne analogue for the following compounds
endpoint_name: fold less potency compared to corresponding alkyne analogue

>>> assay_result("O=C(O)C(=O)Nc1ccc(CCc2ccccc2)cc1")
"5 fold"
>>> assay_result("O=C(O)C(=O)Nc1ccc(CCc2ccc(C(F)(F)F)cc2)cc1")
"13 fold"
>>> assay_result("O=C(O)C(=O)Nc1ccc(/C=C\\c2ccccc2)cc1")
"3 fold"
>>> assay_result("O=C(O)C(=O)Nc1ccc(/C=C\\c2ccc(C(F)(F)F)cc2)cc1")
"45 fold"
